Values compiled from ChEMBL document CHEMBL3507680.

- measurementProtocol: Human HepG2 cell viability assay in 384 well format
- Assay type: toxicity, cell-based
- Set-up: dose 125 nL, time 70.5 hour; concentration not given beside the values
- conditionDescription: HepG2 cells, read-out: Inhibition
measureName: cytotoxicity at 70.5 h (%)
I only need the number, in %, no unit after it.

Examples with answers:
Cc1nnc(N2CCCC3(CN(Cc4cnn(C)c4)CCO3)C2)o1 (stereo not given) : -5.09
COCC1CN(Cc2ccoc2)Cc2nn(CC3CC3)cc21 (stereo not given) : 18.3
Cc1nc(CNC2CCCN(c3cccnn3)C2)no1 (stereo not given) : 22
CC(C)C(=O)N1CCC(C)(c2cc(O)[nH]n2)CC1 : 20
Cn1cc(CN2CC[C@H]3[C@H]2CC(=O)N3Cc2ccncc2)cn1 : -15.4

Qu. Report cytotoxicity at 70.5 h for Cc1noc(C(C)Nc2ccc3c(c2)CCC3)n1 (stereo not given)
Ans. 8.72

Qu. Report cytotoxicity at 70.5 h for Cc1cs/c(=N\C(=O)c2c3c(nc4onc(C)c24)CCC3)[nH]1
Ans. -19.5

Qu. Report cytotoxicity at 70.5 h for CNC(=O)c1cccc(NC(=O)NCc2ccccc2)c1C
Ans. -10.1

Qu. Report cytotoxicity at 70.5 h for Cc1cc(C)n(CC(C)NC(=O)c2cc(C(C)C)on2)n1 (stereo not given)
Ans. -4.49

Qu. Report cytotoxicity at 70.5 h for CS(=O)(=O)CCCOc1cccc(-n2ccnc2)c1
Ans. -2.41

Qu. Report cytotoxicity at 70.5 h for Cc1cc(C)c2c(NCc3nncn3C3CCCCC3)ncnc2n1
Ans. -13.6

Qu. Report cytotoxicity at 70.5 h for Cc1ccc(-n2nnc(C(=O)Nc3cc(C)nn3C)c2C2CC2)cc1
Ans. 0.219

Qu. Report cytotoxicity at 70.5 h for Cn1ccc(CN2CCC(CC(=O)N3CCCC3)CC2)cc1=O
Ans. -6.85

Qu. Report cytotoxicity at 70.5 h for CCC(=O)N1CCC(c2nnc(Cn3cccn3)n2C2CC2)CC1
Ans. -6.95

Qu. Report cytotoxicity at 70.5 h for CCCNC(=O)C1CCN(CC(O)c2ccccc2)CC1 (stereo not given)
Ans. -10.6

Qu. Report cytotoxicity at 70.5 h for CC(C)(C)CC(=O)Nc1ncn(CC(=O)NCc2ccccc2)n1
Ans. 25.6

Qu. Report cytotoxicity at 70.5 h for CNC(=O)CN(C)c1nc(-c2ccc(C(N)=O)cc2)nc2c1CCNC2
Ans. -0.358

---

// cytotoxicity at 70.5 h lookup, one value per entry
- measurementProtocol: Human HepG2 cell viability assay in 384 well format
- Type: toxicity, cell-based
- Parameters: dose 125 nL, time 70.5 hour; concentration not given beside the values
- conditionDescription: HepG2 cells, read-out: Inhibition
I only need the number, in %, no unit after it.

Cc1ccc(N2CCO[C@H]3CN(CC4CC4)C[C@H]32)nn1 : -13.4
COc1ccccc1-c1cc(C(=O)Nc2nc[nH]n2)[nH]n1 : -12.9
CC[C@H](CO)NC(=O)c1coc(COc2cccc(F)c2F)n1 : 9.55
CCCc1noc(-c2cn(CC(=O)N(CC)CC)nn2)n1 : -4.55
CC(C)=Cc1c(-c2ccccc2)ncn1CCN(C)S(C)(=O)=O : 0.261

Qu. Report cytotoxicity at 70.5 h for CCN1CCN(c2ccc(CNC(=O)c3ccccc3F)cn2)CC1
Ans. -0.777

---

- measurementProtocol: Human HepG2 cell viability assay in 384 well format
- Format: toxicity, cell-based
- Parameters: dose 125 nL, time 70.5 hour; concentration not given beside the values
- conditionDescription: HepG2 cells, read-out: Inhibition
// cytotoxicity at 70.5 h lookup, one value per entry
I only need the number, in %, no unit after it.

CC(=O)NCC1CCN(C(=O)NCCc2ccc3c(c2)OCO3)CC1 : -17.3
CC(=O)c1ccc(C(=O)N2C[C@@H]3CC[C@H](C2)N(Cc2ccccc2)C3)s1 : 4.96

Moving on to the next compound.
Qu. Report cytotoxicity at 70.5 h for CCc1ccc(NC(=O)C2OC(c3cccs3)=NN2C(C)=O)cc1 (centres undefined)
Ans. 40.2

---

- measurementProtocol: Human HepG2 cell viability assay in 384 well format
- Format: toxicity, cell-based
- Parameters: dose 125 nL, time 70.5 hour; concentration not given beside the values
- conditionDescription: HepG2 cells, read-out: Inhibition
// cytotoxicity at 70.5 h lookup, one value per entry
I only need the number, in %, no unit after it.

Cn1nnnc1SCCNC(=O)CC1CCc2ccccc21 (stereo unspecified) : -1.31
CCCc1n[nH]c(C2CN(CCCOc3ccccc3)CCO2)n1 (stereo unspecified) : -6.69
O=C(C1CCS(=O)(=O)CC1)N1CCC(c2ccc(F)cc2)C1 (stereo unspecified) : 4.45
Cc1cc(C)n(CC2CCCN2C(=O)c2ccc(N(C)C)nn2)n1 (stereo unspecified) : -10.8
Cc1ccccc1CN1CCN(C(=O)c2cnc(C3CC3)[nH]c2=O)CC1 : 7.92

Qu. Report cytotoxicity at 70.5 h for O=C(c1ccnnc1)N1CCCn2nnc(COCC3CC3)c2C1
Ans. 6.34

Qu. Report cytotoxicity at 70.5 h for COc1cc(S(=O)(=O)N2CCc3cc(Br)ccc32)cc(C(=O)O)c1OC
Ans. -0.737

Qu. Report cytotoxicity at 70.5 h for CCn1cc(C(=O)N2CCCC(c3[nH]ncc3S(C)(=O)=O)C2)cn1 (stereo unspecified)
Ans. -8.2

Qu. Report cytotoxicity at 70.5 h for c1ccc(-n2cncn2)c(CNCCn2cccn2)c1
Ans. 10.2

Qu. Report cytotoxicity at 70.5 h for Cc1ccc(C(=O)N2CCC3(CCCCC3)C2)c(=O)[nH]1
Ans. -105

Qu. Report cytotoxicity at 70.5 h for Cc1ccc(OCCN(C)Cc2nccn2C)c(C)c1
Ans. -9.5

---

- measurementProtocol: Human HepG2 cell viability assay in 384 well format
- Format: toxicity, cell-based
- Design: dose 125 nL, time 70.5 hour; concentration not given beside the values
- conditionDescription: HepG2 cells, read-out: Inhibition
// cytotoxicity at 70.5 h lookup, one value per entry
I only need the number, in %, no unit after it.

Qu. Report cytotoxicity at 70.5 h for O=C(CCc1ccsc1)Nc1cccnc1N1CCCC1
Ans. -6.9

Qu. Report cytotoxicity at 70.5 h for CC(C)C(NC(=O)Nc1ccc(F)cc1)C(=O)N(C)C (configuration not stated)
Ans. 3.02

---

// cytotoxicity at 70.5 h lookup, one value per entry
- measurementProtocol: Human HepG2 cell viability assay in 384 well format
- Type: toxicity, cell-based
- Design: dose 125 nL, time 70.5 hour; concentration not given beside the values
- conditionDescription: HepG2 cells, read-out: Inhibition
I only need the number, in %, no unit after it.

Examples with answers:
Cc1cc(N2CCC(n3cc(CN4CCC[C@@H]4CO)nn3)CC2)ccn1 : -8.62
Cc1noc(C2CCN(C(=O)CN(C)c3ccc(Cl)cn3)CC2)n1 : -20.9
CCn1ccnc1CN1CCN(Cc2cccc(C#N)c2)CC1 : 21.4

Moving on to the next compound.
Qu. Report cytotoxicity at 70.5 h for COc1ccc(C(=O)Nc2cccc(SC)c2)c(OC)n1
Ans. 26.2

---

- measurementProtocol: Human HepG2 cell viability assay in 384 well format
- Format: toxicity, cell-based
- Set-up: dose 125 nL, time 70.5 hour; concentration not given beside the values
- conditionDescription: HepG2 cells, read-out: Inhibition
measureName: cytotoxicity at 70.5 h (%)
I only need the number, in %, no unit after it.

Examples with answers:
C[C@@H]1CN(C2CCOCC2)C[C@]12CCN(c1cccnc1)C2=O : -5.4
CC(NC1CCN(CCS(C)(=O)=O)CC1)c1cnn(C(C)C)c1 (configuration not stated) : -10.2
Cc1nn(C)c2ncc(S(=O)(=O)N3CCN4CCCC4C3)cc12 (configuration not stated) : -7.68

Qu. Report cytotoxicity at 70.5 h for O=C1Nc2ccccc2C12CCN(Cc1ccccn1)CC2
Ans. 0.291

Qu. Report cytotoxicity at 70.5 h for O=C1CCC(=O)c2oc3ccc(Br)cc3c2N1
Ans. -12.5

Qu. Report cytotoxicity at 70.5 h for Cc1noc(C)c1CN1CC[C@H]2OCC[C@@H](C(=O)NCC3CC3)[C@@H]2C1
Ans. -3.12

Qu. Report cytotoxicity at 70.5 h for O=C(O)c1cncc(Cc2ccc(F)cc2)c1
Ans. -7.6

Qu. Report cytotoxicity at 70.5 h for CN1C[C@@H](N)C[C@H]1C(=O)N1CCC(Cc2ccc(F)cc2)CC1
Ans. 0.737

Qu. Report cytotoxicity at 70.5 h for COc1ccc2c(=O)n(CC3CC3)ccc2c1OC
Ans. 2.47

Qu. Report cytotoxicity at 70.5 h for CS(=O)(=O)NCc1nnc2n1CCN(Cc1ccncc1)C2
Ans. 20.1

Qu. Report cytotoxicity at 70.5 h for O=C(CN1CCC(c2nnc(C(F)(F)F)o2)CC1)Nc1cccnc1
Ans. -3.9

Qu. Report cytotoxicity at 70.5 h for COCCc1ncc(-c2c(C#N)c(N)nc3c2CCc2[nH]ccc2-3)cn1
Ans. -3.18
